Target: Integrin alpha-IIb/beta-3 (Homo sapiens, UniProt P08514+P05106)
Sequence (P05106 27-788 limits assumed): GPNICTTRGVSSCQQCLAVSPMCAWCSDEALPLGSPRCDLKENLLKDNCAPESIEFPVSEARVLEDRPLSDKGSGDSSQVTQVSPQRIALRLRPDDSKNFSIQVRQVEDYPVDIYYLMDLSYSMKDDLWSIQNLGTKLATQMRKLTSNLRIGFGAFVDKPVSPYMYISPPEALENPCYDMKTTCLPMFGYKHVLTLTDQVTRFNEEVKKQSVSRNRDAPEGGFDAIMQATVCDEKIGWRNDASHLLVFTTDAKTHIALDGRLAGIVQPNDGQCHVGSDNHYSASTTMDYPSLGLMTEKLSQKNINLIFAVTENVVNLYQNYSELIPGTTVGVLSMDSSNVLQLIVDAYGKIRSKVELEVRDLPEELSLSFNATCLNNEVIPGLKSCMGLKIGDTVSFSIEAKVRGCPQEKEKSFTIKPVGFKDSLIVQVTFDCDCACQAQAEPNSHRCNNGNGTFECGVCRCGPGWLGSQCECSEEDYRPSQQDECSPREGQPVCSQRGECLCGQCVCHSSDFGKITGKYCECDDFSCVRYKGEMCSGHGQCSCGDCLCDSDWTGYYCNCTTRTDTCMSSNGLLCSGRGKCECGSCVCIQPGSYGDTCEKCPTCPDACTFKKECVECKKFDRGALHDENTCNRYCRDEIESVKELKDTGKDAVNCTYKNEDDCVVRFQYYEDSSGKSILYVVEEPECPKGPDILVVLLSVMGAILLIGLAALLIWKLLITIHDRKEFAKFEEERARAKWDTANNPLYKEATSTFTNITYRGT
Sequence (P08514 32-887 limits assumed): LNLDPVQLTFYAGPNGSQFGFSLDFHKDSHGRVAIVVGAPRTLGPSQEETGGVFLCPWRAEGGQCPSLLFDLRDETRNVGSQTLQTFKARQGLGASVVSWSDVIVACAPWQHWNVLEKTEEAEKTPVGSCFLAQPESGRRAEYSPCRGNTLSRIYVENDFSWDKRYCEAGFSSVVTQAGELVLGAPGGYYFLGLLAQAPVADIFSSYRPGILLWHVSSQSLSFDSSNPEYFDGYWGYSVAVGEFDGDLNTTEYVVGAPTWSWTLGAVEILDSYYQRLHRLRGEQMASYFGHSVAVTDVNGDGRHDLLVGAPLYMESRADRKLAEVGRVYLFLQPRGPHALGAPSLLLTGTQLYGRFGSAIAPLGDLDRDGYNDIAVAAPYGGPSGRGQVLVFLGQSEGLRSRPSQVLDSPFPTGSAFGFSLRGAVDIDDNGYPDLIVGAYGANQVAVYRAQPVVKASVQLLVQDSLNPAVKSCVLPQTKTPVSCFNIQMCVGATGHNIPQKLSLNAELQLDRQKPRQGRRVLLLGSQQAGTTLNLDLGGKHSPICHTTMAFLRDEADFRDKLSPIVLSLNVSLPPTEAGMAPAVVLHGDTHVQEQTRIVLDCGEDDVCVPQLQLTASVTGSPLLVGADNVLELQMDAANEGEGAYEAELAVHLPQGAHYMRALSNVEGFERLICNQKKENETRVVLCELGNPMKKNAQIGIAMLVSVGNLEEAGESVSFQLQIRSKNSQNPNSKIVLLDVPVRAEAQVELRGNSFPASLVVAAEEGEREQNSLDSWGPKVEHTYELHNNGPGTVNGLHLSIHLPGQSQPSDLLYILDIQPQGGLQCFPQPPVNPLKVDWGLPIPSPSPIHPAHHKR
Sequence (P08514 891-1039 limits assumed): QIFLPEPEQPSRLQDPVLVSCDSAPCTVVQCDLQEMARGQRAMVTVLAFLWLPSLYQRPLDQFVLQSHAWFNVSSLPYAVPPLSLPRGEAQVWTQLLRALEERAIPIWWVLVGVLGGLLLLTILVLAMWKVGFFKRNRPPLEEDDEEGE
Assay: Inhibition of human platelet (h-PRP) aggregation induced by 20 uM ADP with PPACK
pIC50: −log10 of the molar value.
property-name: pIC50

(1) N=C(N)c1ccc(N2CCC3(CCN(C(=O)NCCC(=O)O)CC3)C2=O)cc1
(2) N=C(N)c1ccc(N2CCC3(CCN(C(=O)COCC(=O)O)CC3)C2=O)cc1
Exercise: Just tell me: smaller pIC50 value, 1 or 2 ? Lab log: write the label of the selected item as the result.
Solution: 2

* * *

Target: Integrin alpha-IIb/beta-3 (Homo sapiens, UniProt P08514+P05106)
Assay: Inhibition of platelet aggregation induced by 20 uM adenosine 5-diphosphate (ADP) in citreated human platelet rich plasma (h-PRP)
pIC50: −log10 of the molar value.
property-name: pIC50

INSERT INTO measurements (compound, test_target, assay_value) VALUES
  ('N=C(N)c1ccc(N2CCC3(CCN(C(=O)CCCC(=O)O)CC3)C2=O)cc1', 'Integrin alpha-IIb/beta-3 (Homo sapiens, UniProt P08514+P05106)', 7.27);

(a) CCOC(=O)CCNC(=O)N[C@H]1CCN(c2ccc(C(=N)N)cc2)C1=O [SC-57099B]
(b) Cc1noc(C)c1S(=O)(=O)N[C@@H](CCC(=O)N1CCC2(CC1)CCN(c1ccc(C(=N)N)cc1)C2=O)C(=O)O
(c) CC(CC(=O)O)NC(=O)N1CCC2(CC1)CCN(c1ccc(C(=N)N)cc1)C2=O (stereo not given)
(d) N=C(N)c1ccc(N2CCC3(CCN(C(=O)CC(=O)O)CC3)C2=O)cc1
Exercise: Give the ascending ranking of the items by reported pIC50. // format: requested-order list of labels
Solution: d, c, a, b

* * *

Target: Integrin alpha-IIb/beta-3 (Homo sapiens, UniProt P08514+P05106)
Test: Inhibition of platelet aggregation induced by 20 uM adenosine 5-diphosphate (ADP) in citreated human platelet rich plasma (h-PRP)
pIC50: −log10 of the molar value.
property-name: pIC50

INSERT INTO assay_data (compound, test_target, assay_value) VALUES
  ('CCCCOC(=O)N[C@@H](CCC(=O)N1CCC2(CC1)CC(=O)N(c1ccc(C(=N)N)cc1)C2=O)C(=O)O', 'Integrin alpha-IIb/beta-3 (Homo sapiens, UniProt P08514+P05106)', 6.57),
  ('N=C(N)c1ccc(N2CCC3(CCN(C(=O)CCC(=O)O)CC3)C2=O)cc1', 'Integrin alpha-IIb/beta-3 (Homo sapiens, UniProt P08514+P05106)', 6.13),
  ('N=C(N)c1ccc(N2CC3(CCN(C(=O)CCCC(=O)O)CC3)NC2=O)cc1', 'Integrin alpha-IIb/beta-3 (Homo sapiens, UniProt P08514+P05106)', 5.99),
  ('Cc1noc(C)c1S(=O)(=O)N[C@@H](CCC(=O)N1CCC2(CC1)C(=O)N(c1ccc(C(=N)N)cc1)C(=O)N2C)C(=O)O', 'Integrin alpha-IIb/beta-3 (Homo sapiens, UniProt P08514+P05106)', 6.93);

(A) N=C(N)c1ccc(N2C(=O)NC3(CCN(C(=O)CCCC(=O)O)CC3)C2=O)cc1
(B) CN1C(=O)N(c2ccc(C(=N)N)cc2)C(=O)C12CCN(C(=O)NCCC(=O)O)CC2
Exercise: # argmax over pIC50 for candidates A and B Lab log: write the label of the selected item as the result.
Solution: B
